Test system: Key Grass and Sedge Weeds as well as Grass Crops
Assay: Post-emergent Test II herbicidal activity (Table 6)
Assay type: in vivo
Conditions: post-emergence, 336 h, ECHCG: barnyardgrass (Echinochloa crus-galli), 140 g ai/ha, read-out: Visual Growth Reduction (%) 14 Days After Application, ECHCG
Text: Post-emergent Test II: Seeds or nutlets of the desired test plant species were planted in Sun Gro Metro-Mix® 360 planting mixture, which typically has a pH of 6.0 to 6.8 and an organic matter content of about 30 percent, in plastic pots with a surface area of 64 square centimeters. When required to ensure good germination and healthy plants, a fungicide treatment and/or other chemical or physical treatment was applied. […]
Value Type: pest or weed control at 140 g/ha

{"Chemical String": "COC(=O)c1nc(-c2ccc(Br)c(F)c2F)c(F)c(N)c1Cl", "Value Type": "pest or weed control at 140 g/ha", "Result": "95 to 100%"}
{"Chemical String": "COC(=O)c1nc(-c2ccc(OC(F)F)cc2)c(F)c(N)c1Cl", "Value Type": "pest or weed control at 140 g/ha", "Result": "95 to 100%"}
{"Chemical String": "COc1c(N)nc(-c2ccc(I)cc2)nc1C(=O)O", "Value Type": "pest or weed control at 140 g/ha", "Result": "75 to 84%"}
{"Chemical String": "Nc1c(F)c(-c2ccc(Br)cc2)nc(C(=O)O)c1Cl", "Value Type": "pest or weed control at 140 g/ha", "Result": "95 to 100%"}
{"Chemical String": "Nc1c(F)c(-c2ccc(I)c(F)c2F)nc(C(=O)O)c1Cl", "Value Type": "pest or weed control at 140 g/ha", "Result": "95 to 100%"}

Task item: Entry COC(=O)c1nc(-c2ccc(Br)cc2F)nc(N)c1OC has what pest or weed control at 140 g/ha?
Reply: 85 to 94%

Task item: Entry COC(=O)c1ccc(-c2nc(C(=O)OC)c(Cl)c(N)c2F)cc1 has what pest or weed control at 140 g/ha?
Reply: 0 to 29%

Task item: Entry N#Cc1ccc(-c2nc(C(=O)O)c(Cl)c(N)c2F)cc1 has what pest or weed control at 140 g/ha?
Reply: 85 to 94%

Task item: Entry Nc1c(F)c(-c2ccc(I)cc2)nc(C(=O)O)c1Cl has what pest or weed control at 140 g/ha?
Reply: 95 to 100%

All values here come from patent US9113629B2.
